For each of the compounds below, state its MIC.
Test system: Human alphaherpesvirus 2
Assay: Antiviral activity against HSV2 G in human HEL cells assessed as reduction of virus-induced cytopathogenicity
Assay type: functional
Conditions: Human alphaherpesvirus 2, G

Examples with answers:
> print(dat)
                      smiles.representation               system.name  reported.endpoint  result.value
1  CCNC(=S)Nc1ccc(OCc2n[nH]c(=S)n2-c2ccccc2)cc1  Human alphaherpesvirus 2                MIC   > 400 µg/mL
2  S=C(Nc1ccc(Cl)cc1)Nc1ccc(-c2n[nH]c(=S)n2-c2ccccc2)cc1  Human alphaherpesvirus 2                MIC    > 16 µg/mL
3  CCn1c(COc2ccc(NC(=S)Nc3ccccc3)cc2)n[nH]c1=S  Human alphaherpesvirus 2                MIC    > 80 µg/mL
4  CNC(=S)Nc1ccc(-c2n[nH]c(=S)n2-c2ccccc2)cc1  Human alphaherpesvirus 2                MIC    > 80 µg/mL
5  C=CCNC(=S)Nc1ccc(-c2n[nH]c(=S)n2CC=C)cc1  Human alphaherpesvirus 2                MIC    > 80 µg/mL
6  CCCCCCNC(=S)Nc1ccc(-c2n[nH]c(=S)n2-c2ccccc2)cc1  Human alphaherpesvirus 2                MIC    > 16 µg/mL

Now look at this entry.
Qu. Please list MIC recorded for the compound C=CCn1c(-c2ccc(NC(=S)Nc3ccccc3)cc2)n[nH]c1=S
Ans. > 16 µg/mL

* * *

Experiment: Cytotoxicity against human MT4 cells by MTT assay
Type: cell-based
API: label(entry) gives Met if the entry's CC50 is strictly smaller than 60 µg/mL; on equality or larger values it gives Not met.

Use the examples below as a reference point.
> print(dat)
                      smiles.representation  assigned.category
1      Nc1ccc(OCc2n[nH]c(=S)n2-c2ccccc2)cc1            Not met
2  S=C(Nc1ccccc1)Nc1ccc(-c2n[nH]c(=S)n2-c2ccccc2)cc1                Met
3  CCn1c(COc2ccc(NC(=S)Nc3ccccc3)cc2)n[nH]c1=S                Met
4  C=CCNC(=S)Nc1ccc(OCc2n[nH]c(=S)n2CC=C)cc1            Not met
5        CNC(=S)Nc1ccc(-c2n[nH]c(=S)n2C)cc1            Not met

Qu. A record lists Cn1c(COc2ccc(N)cc2)n[nH]c1=S . Is its CC50 below 60 µg/mL?
Ans. Not met

Qu. A record lists C=CCn1c(COc2ccc(NC(=S)NC)cc2)n[nH]c1=S . Is its CC50 below 60 µg/mL?
Ans. Not met

* * *

Test system: Mammalian orthoreovirus 1
Test: Antiviral activity against Reo virus 1 in african green monkey Vero cells assessed as reduction of virus-induced cytopathogenicity
Format: functional
REPORTED ENDPOINT: MIC

Examples with answers:
> print(dat)
                      smiles.representation                system.name  result.value
1    C=CCNC(=S)Nc1ccc(OCc2n[nH]c(=S)n2C)cc1  Mammalian orthoreovirus 1    > 80 µg/mL
2  CCNC(=S)Nc1ccc(OCc2n[nH]c(=S)n2-c2ccccc2)cc1  Mammalian orthoreovirus 1    > 80 µg/mL

Now look at this entry.
Qu. Please list MIC recorded for the molecule S=C(Nc1ccc(Cl)cc1)Nc1ccc(-c2n[nH]c(=S)n2-c2ccccc2)cc1
Ans. > 16 µg/mL

Cited source: ChEMBL document CHEMBL1149790
